These data points were gathered from paper PMC13360575.

Target: chicken IgY (chicken)
Assay: BLI; Octet, SAX (streptavidin) biosensors; recombinant Fabs against IgY; KD from a kinetic 1:1 model, global fit over multiple concentrations (partial fits averaged for 3 low-affinity Fabs)
measured property: pKd
Note on pKd: it is the negative log10 of concentration, concentration in mol/L.

Query: Any idea what its pKd is? The binder is clone 2.1 Fab TA_1 (Fab, V domains shown) VH: EVQLQESGPSLVKPSQTLSLTCSVTGDSITSGYWNWIRKFPGNRLEYMGYISFSGSTYYNPSLKSRISITRDTSKNQYYLQLNSVTTEDTATYYCARDFDVWGAGTTVTVSS VL: DIVMTQSQKFMSTSVGDRVSVTCKASQNVGTNVGWYQQKPGQSPKALIYSASYRYSGVPDRFTGSGSGTDFTLTISNVQSEDLAEYFCQQYNSYPLTFGSGTKLEIK
Result: 8.55

Query: Any idea what its pKd is? The binder is clone 2.1 Fab L_10 (affinity ladder) (Fab, V domains shown) VH: EVQLQESGPGLVKPSQTLSLTCSVTGDSITSGYWNWIRKFPGNKLEYMGYISYSGSTYYNPSLKSRVSITRDTSKNQHYLQLNSVTTEDTATYYCGRDFDVWGAGTTVTVSS VL: DIVMTQSQKFMSTSVGDRVSVTCKASQNVGTNVAWYQQKPGQSPKALIYSASYRYSGVPDRFTGSGSGTDFTLTISNVQSEDLAEYFCQQYKSYPLTFGSGTKLEIK
Result: 8.92

Query: Any idea what its pKd is? The binder is clone 2.1 Fab TA_23 (Fab, V domains shown) VH: EVQLQESGPSLVKPSQTLSLTCSVTGDSITSGYWNWIRKFPGNKLEYMGYISYSGSTYYNPSLKSRISITRDTSKNQYYLQLNSVTTEDTATYYCARDFDVWGAGTTVTVSS VL: DIVMTQSQKFMSTSVGDRVSVTCKASQNVGTNVAWYQQKPGQSPKALIYSASYRYSGVPDRFTGSGSGTDFTLTISNVQSEDLAEYFCHQYNSYPLTFGSGTKLEIK
Result: 7.88

Query: Any idea what its pKd is? The binder is clone 2.1 Fab CB_07 (clonal burst) (Fab, V domains shown) VH: EVQLQESGPSLVKPSQTLSLTCSVTGDSITSGYWNWIRKFPGNKLEYMGYISYSGSTYYNPSLKSRISITRDTSKNQYYLQLNSVTTEDTATYYCGRDFDVWGAGTTVTVSS VL: DIVMTQSQKFMSTSVGDRVSVTCKASQNVGTNVAWYQQKPGQSPKALIYSASYRYSGVPDRFTGSGSGTDFTLTISNVQSEDLAEYFCQQYKSYPLTFGSGTKLEIK
Result: 8.87

Query: Any idea what its pKd is? The binder is clone 2.1 Fab TA_27 (Fab, V domains shown) VH: EVQLQESGPSLVKPSQTLSLTCSVTGDSITSGYWNWIRKFPGNRLEYMGYISYSGSTYYNPSLKSRISITRDTSKNQYYLQLNSVTTEDTATYYCARDFDVWGAGTTVTVSS VL: DIVMTQSQKFMSTSVGDRVSVTCKASQNVGTNVGWFQQKPGQSPKSLIYSASYRYSGVPDRFTGSGSGTDFTLTISNVQSEDLAEYFCQQYSSYPLTFGSGTKLEIK
Result: 9.55

Query: Any idea what its pKd is? The binder is clone 2.1 Fab CB_10 (clonal burst) (Fab, V domains shown) VH: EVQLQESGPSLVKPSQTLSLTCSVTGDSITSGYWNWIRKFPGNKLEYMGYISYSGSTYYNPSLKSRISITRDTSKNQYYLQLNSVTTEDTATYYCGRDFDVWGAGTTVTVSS VL: DIVMTQSQKFMSTSVGDRVSVTCKASQNVGTNVGWYQQKPGQSPKALIYSASYRYSGVPDRFTGSGSGTDFTLTISNVQSEDLAEYFCQQYNRYPLTFGSGTKLEIK
Result: 9.90

Query: Any idea what its pKd is? The binder is clone 2.1 Fab TA_26 (Fab, V domains shown) VH: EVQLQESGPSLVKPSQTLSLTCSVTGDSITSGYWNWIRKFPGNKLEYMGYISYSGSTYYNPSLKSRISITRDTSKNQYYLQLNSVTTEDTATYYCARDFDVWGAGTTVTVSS VL: DIVMTQSQKFMSTSVGDRVSVTCKASQNVGTNVAWYQQKPGQSPKALIYSASYRYSGVPDRFTGSGSGTDFTLTISNVQSEDLAEYFCQQYDSYPLTFGSGTKLEIK
Result: 7.23

Query: Any idea what its pKd is? The binder is clone 2.1 Fab TA_13 (Fab, V domains shown) VH: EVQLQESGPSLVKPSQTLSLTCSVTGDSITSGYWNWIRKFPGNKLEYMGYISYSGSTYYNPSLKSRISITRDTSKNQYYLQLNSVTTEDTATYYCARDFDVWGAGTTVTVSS VL: DIVMTQSQKFMSTSVGDRVSVTCKASQNVGTNVGWFQQKPGQSPKALIYSASYRYSGVPDRFTGSGSGTDFTLTISNVQSEDLAEYFCHQYYSYPLTFGSGTKLEIK
Result: 9.26

Query: Any idea what its pKd is? The binder is clone 2.1 Fab CB_05 (clonal burst) (Fab, V domains shown) VH: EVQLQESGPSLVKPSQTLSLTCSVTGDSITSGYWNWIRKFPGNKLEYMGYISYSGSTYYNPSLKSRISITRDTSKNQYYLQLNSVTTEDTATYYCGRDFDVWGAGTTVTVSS VL: DIVMTQSQKFMSTSVGDRVSVTCKASQNVGTNVAWYQQKPGQSPKALIYSASYRYSGVPDRFTGSGSGTDFTLTISNVQSEDLAEYFCQQYNSYPLTFGSGTKLEIK
Result: 8.17

Query: Any idea what its pKd is? The binder is clone 2.1 Fab TA_10 (Fab, V domains shown) VH: EVQLQESGPSLVKPSQTLSLTCSVTGDSITSGYWNWIRRFPGNKLEYMGYISYSGSTYYNPSLKSRISITRDTSKNQYYLQLNSVTTEDTATYYCARDFDVWGAGTTVTVSS VL: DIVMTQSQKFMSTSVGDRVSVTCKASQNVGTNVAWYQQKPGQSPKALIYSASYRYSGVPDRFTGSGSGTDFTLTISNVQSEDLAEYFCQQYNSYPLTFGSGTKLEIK
Result: 7.65
